IC50 values, listed per item
- EXPERIMENTAL_TARGET: human Factor XIII (FXIII) (Homo sapiens)
- Sequence (P00488 1-732): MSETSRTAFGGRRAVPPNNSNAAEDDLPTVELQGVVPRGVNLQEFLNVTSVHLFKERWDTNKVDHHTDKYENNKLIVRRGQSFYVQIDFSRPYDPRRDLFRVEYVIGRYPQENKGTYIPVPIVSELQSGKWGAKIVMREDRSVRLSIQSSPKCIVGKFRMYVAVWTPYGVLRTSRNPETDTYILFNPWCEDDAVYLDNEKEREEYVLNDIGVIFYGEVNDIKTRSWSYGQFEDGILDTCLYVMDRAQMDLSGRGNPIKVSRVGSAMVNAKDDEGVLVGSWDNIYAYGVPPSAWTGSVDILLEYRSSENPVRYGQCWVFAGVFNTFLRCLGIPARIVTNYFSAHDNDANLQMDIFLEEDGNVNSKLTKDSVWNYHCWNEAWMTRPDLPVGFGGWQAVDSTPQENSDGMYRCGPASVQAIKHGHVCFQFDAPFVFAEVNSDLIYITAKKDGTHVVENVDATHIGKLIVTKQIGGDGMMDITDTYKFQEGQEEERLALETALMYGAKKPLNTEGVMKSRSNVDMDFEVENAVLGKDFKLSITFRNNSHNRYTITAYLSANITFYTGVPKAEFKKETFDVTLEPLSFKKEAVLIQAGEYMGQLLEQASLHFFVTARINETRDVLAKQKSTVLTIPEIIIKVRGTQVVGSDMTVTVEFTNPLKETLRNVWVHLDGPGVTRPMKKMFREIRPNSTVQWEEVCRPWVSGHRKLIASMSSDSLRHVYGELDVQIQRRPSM
- ASSAY_DETAILS: Inhibition of recombinant Transglutaminase activity (fluorescent substrate), human Factor XIII
- SETTINGS: Fig 2C, read-out: IC50 to inhibit FXIII activity
Number only, in µM; omit the unit.

{"COMPOUND": "O=C(NCC1CC(Br)=NO1)C1CCCN1C(=O)OCc1cnc2ccccc2c1 (centres unmarked) [ERW1041E]", "IC50 [µM]": 52}

Consider the record given below.
Qu. Please look up its IC50: C=CC(=O)NC1CCN(S(=O)(=O)c2cccc3c(NC(=O)c4ccc(OC)c(OC)c4)cccc23)CC1
Ans. 22

###

- EXPERIMENTAL_TARGET: recombinant human TG2 (hTG2) (Homo sapiens, UniProt P21980)
- Sequence (P21980 whole entry): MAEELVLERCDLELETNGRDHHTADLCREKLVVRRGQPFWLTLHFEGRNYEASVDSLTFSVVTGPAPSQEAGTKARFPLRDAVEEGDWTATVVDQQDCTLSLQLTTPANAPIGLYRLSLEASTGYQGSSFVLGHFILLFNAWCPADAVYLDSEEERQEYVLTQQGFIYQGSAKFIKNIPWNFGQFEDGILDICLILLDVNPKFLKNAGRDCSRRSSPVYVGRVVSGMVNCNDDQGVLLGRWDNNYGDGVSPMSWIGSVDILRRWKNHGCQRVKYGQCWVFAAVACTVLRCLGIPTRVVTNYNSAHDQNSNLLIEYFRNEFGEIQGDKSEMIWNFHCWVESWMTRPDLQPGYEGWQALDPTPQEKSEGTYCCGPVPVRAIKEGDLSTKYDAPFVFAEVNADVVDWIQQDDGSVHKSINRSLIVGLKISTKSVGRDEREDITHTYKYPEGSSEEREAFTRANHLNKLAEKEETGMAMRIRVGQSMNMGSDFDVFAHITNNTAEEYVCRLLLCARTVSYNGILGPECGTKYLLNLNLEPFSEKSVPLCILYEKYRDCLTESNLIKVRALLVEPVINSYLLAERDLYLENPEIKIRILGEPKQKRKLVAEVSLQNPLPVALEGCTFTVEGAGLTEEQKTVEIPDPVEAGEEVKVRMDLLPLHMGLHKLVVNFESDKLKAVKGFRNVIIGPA
- ASSAY_DETAILS: Inhibition of recombinant Transglutaminase activity (fluorescent substrate), human TG2
- SETTINGS: recombinant human TG2, Fig 2A
pIC50 values, listed per item
Field pIC50 (float): negative decimal logarithm of the concentration in molar.

{"COMPOUND": "C=CC(=O)NC1CCN(S(=O)(=O)c2cccc3c(NC(=O)c4ccc(OC)c(OC)c4)cccc23)CC1", "pIC50": 7.39}

Consider the record given below.
Qu. Please look up its pIC50: O=C(NCC1CC(Br)=NO1)C1CCCN1C(=O)OCc1cnc2ccccc2c1 (centres unmarked) [ERW1041E]
Ans. 5.80

Where do the numbers come from? From paper PMC5918173.
